Kindly state FGFR2/FGFR4 for each of the entries shown.
TESTED SYSTEM: FGFR4 (Homo sapiens (Human), UniProt P22455)
Sequence (P22455 22-802): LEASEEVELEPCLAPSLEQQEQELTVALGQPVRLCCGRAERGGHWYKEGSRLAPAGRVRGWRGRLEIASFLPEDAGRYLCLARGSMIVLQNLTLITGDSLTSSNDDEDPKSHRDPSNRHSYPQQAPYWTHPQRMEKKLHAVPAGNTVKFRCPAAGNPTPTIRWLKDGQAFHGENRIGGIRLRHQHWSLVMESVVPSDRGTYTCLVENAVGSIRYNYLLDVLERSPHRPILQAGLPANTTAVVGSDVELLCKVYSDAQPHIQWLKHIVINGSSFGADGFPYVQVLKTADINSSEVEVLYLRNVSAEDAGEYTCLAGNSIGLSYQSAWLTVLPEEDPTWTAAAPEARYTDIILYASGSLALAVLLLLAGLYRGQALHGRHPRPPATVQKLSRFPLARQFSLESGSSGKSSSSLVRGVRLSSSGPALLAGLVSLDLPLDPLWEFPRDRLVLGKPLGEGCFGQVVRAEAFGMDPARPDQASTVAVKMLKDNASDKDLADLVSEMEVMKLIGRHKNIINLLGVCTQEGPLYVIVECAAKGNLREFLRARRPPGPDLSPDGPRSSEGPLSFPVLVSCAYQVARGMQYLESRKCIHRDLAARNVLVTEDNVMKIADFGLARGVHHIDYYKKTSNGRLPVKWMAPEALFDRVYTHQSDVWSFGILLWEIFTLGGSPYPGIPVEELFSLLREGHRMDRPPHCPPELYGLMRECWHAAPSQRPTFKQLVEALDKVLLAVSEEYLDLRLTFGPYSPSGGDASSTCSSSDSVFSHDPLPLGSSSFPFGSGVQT
PROTOCOL DETAILS: FGFR Enzymatic Assay (FRET peptide phosphorylation), FGFR4
ASSAY CONDITIONS: IC50 ratio showing FGFR4 selectivity; pre-incubated for 5 to 10 minutes

Req: Quick one: FGFR2/FGFR4 of C=CC(=O)Nc1ccc(C#N)c(-c2cc3c(cn2)CN(c2c(F)c(OC)cc(OC)c2F)C(=O)C32CC2)c1 ?
Resp: >100

Req: Query: FGFR2/FGFR4; subject: C=CC(=O)Nc1cc(-c2cc3c(cn2)CN(c2c(F)c(OC)cc(OC)c2F)C(=O)C32CC2)ccc1CN1CCOCC1
Resp: >1

Req: Requested field: FGFR2/FGFR4. Item: C=CC(=O)Nc1cc(-c2cc3c(cn2)CN(c2c(F)c(OC)cc(OC)c2F)C(=O)C32CC2)cc(N2CCOCC2)c1
Resp: >100

Req: I have this compound here, C=CC(=O)Nc1cc(-c2cc3c(cn2)CN(c2c(F)c(OC)cc(OC)c2F)C(=O)C32CC2)c(C)cc1F , and I need its recorded FGFR2/FGFR4.
Resp: >100

Req: Find the recorded FGFR2/FGFR4 belonging to C=CC(=O)N1CCCC(c2cc3c(cn2)CN(c2c(F)c(OC)cc(OC)c2F)C(=O)C32CC2)C1 (centres unmarked) and report it.
Resp: >1

Req: Name the recorded FGFR2/FGFR4 for C=CC(=O)Nc1ccc(C)c(-c2cc3c(cn2)CN(c2c(F)c(OC)cc(OC)c2F)C(=O)C32CC2)c1 .
Resp: >100

For each of the compounds below, state FGFR2/FGFR4.
1. C=CC(=O)Nc1cnc(C)c(-c2cc3c(cn2)CN(c2c(F)c(OC)cc(OC)c2F)C(=O)C32CC2)c1
2. C=CC(=O)Nc1cc(CN2CCOCC2)cc(-c2cc3c(cn2)CN(c2c(F)c(OC)cc(OC)c2F)C(=O)C32CC2)c1

Resp:
[">100", ">100"]

----------
TESTED SYSTEM: FGFR4 (Homo sapiens (Human))
PROTOCOL DETAILS: FGFR Enzymatic Assay (FRET peptide phosphorylation), FGFR4
ASSAY CONDITIONS: IC50 ratio showing FGFR4 selectivity; pre-incubated for 4 hours
PARAMETER MEASURED: FGFR2/FGFR4

Req: # value lookup — system FGFR4 (Homo sapiens (Human)), readout FGFR2/FGFR4, item C=CC(=O)Nc1cnn(Cc2cnn(C)c2)c1-c1cc2c(cn1)CN(c1c(F)c(OC)cc(OC)c1F)C(=O)C21CC1
Resp: >100

Req: Look up FGFR2/FGFR4 with FGFR4 (Homo sapiens (Human)) for this compound: C=CC(=O)Nc1cnn(C[C@@H]2CCOC2)c1-c1cc2c(cn1)CN(c1c(F)c(OC)cc(OC)c1F)C(=O)C21CC1
Resp: >100

Req: Given the entry C=CC(=O)Nc1cnn(C2CCOCC2)c1-c1cc2c(cn1)CN(c1c(F)c(OC)cc(OC)c1F)C(=O)C21CC1 , what FGFR2/FGFR4 was observed with FGFR4 (Homo sapiens (Human))?
Resp: >50

Req: Missing value: FGFR2/FGFR4, FGFR4 (Homo sapiens (Human)), entry C=CC(=O)Nc1cc(-c2cc3c(cn2)CN(c2c(F)c(OC)cc(OC)c2F)C(=O)C32CC2)ccc1CN1CCOCC1 . Fill in?
Resp: >25

Req: Recall the recorded FGFR2/FGFR4 for C=CC(=O)Nc1cnn(CCOCC)c1-c1cc2c(cn1)CN(c1c(F)c(OC)cc(OC)c1F)C(=O)C21CC1 with FGFR4 (Homo sapiens (Human)) and state it.
Resp: >100

Req: Requested read-out FGFR2/FGFR4, target or system FGFR4 (Homo sapiens (Human)), entry C=CC(=O)Nc1cnn(CCOC)c1-c1cc2c(cn1)CN(c1c(F)c(OC)cc(OC)c1F)C(=O)C21CC1
Resp: >100

Req: Test system FGFR4 (Homo sapiens (Human)); read-out FGFR2/FGFR4; what value for C=CC(=O)Nc1ccc(C)c(-c2cc3c(cn2)CN(c2c(F)c(OC)cc(OC)c2F)C(=O)C32CC2)c1 ?
Resp: >100

Req: Observed FGFR2/FGFR4 on FGFR4 (Homo sapiens (Human)) for C=CC(=O)Nc1cnn(Cc2ccncc2)c1-c1cc2c(cn1)CN(c1c(F)c(OC)cc(OC)c1F)C(=O)C21CC1 , please.
Resp: >50

Req: What measured FGFR2/FGFR4 is associated with C=CC(=O)Nc1cn(CCN2CCOCC2)nc1-c1cc2c(cn1)CN(c1c(F)c(OC)cc(OC)c1F)C(=O)C21CC1 on FGFR4 (Homo sapiens (Human))?
Resp: >100

Req: Lab note: need FGFR2/FGFR4 with FGFR4 (Homo sapiens (Human)) for entry C=CC(=O)Nc1cnc(C)c(-c2cc3c(cn2)CN(c2c(F)c(OC)cc(OC)c2F)C(=O)C32CC2)c1 , please look it up.
Resp: >100

Below are some compounds; for each one, tell me its FGFR2/FGFR4.
1. C=CC(=O)Nc1cnn(CCO)c1-c1cc2c(cn1)CN(c1c(F)c(OC)cc(OC)c1F)C(=O)C21CC1
2. C=CC(=O)N1CCCC(c2cc3c(cn2)CN(c2c(F)c(OC)cc(OC)c2F)C(=O)C32CC2)C1 (centres unmarked)
3. C=CC(=O)Nc1cn(CCOC(F)(F)F)nc1-c1cc2c(cn1)CN(c1c(F)c(OC)cc(OC)c1F)C(=O)C21CC1

Resp:
[">100", ">2", ">100"]

Req: Given the entry C=CC(=O)Nc1cnn(Cc2ncn(C)n2)c1-c1cc2c(cn1)CN(c1c(F)c(OC)cc(OC)c1F)C(=O)C21CC1 , what FGFR2/FGFR4 was observed with FGFR4 (Homo sapiens (Human))?
Resp: >100

----------
For each of the compounds below, state its FGFR1/FGFR4.
TESTED SYSTEM: FGFR4 (Homo sapiens (Human))
PROTOCOL DETAILS: FGFR Enzymatic Assay (FRET peptide phosphorylation), FGFR4
ASSAY CONDITIONS: IC50 ratio showing FGFR4 selectivity; pre-incubated for 4 hours

Examples with their reported FGFR1/FGFR4 follow.
Req: Find FGFR1/FGFR4 (FGFR4 (Homo sapiens (Human))) for the entry C=CC(=O)Nc1cnn(CCN2CCOCC2)c1-c1cc2c(cn1)CN(c1c(F)c(OC)cc(OC)c1F)C(=O)C21CC1
Resp: >100

Req: Value wanted: FGFR1/FGFR4 (FGFR4 (Homo sapiens (Human))) of entry C=CC(=O)N1CCCC(c2cc3c(cn2)CN(c2c(F)c(OC)cc(OC)c2F)C(=O)C32CC2)C1 (centres unmarked)
Resp: >10

Req: Find FGFR1/FGFR4 (FGFR4 (Homo sapiens (Human))) for the entry C=CC(=O)Nc1cnn(CC(=O)NC)c1-c1cc2c(cn1)CN(c1c(F)c(OC)cc(OC)c1F)C(=O)C21CC1
Resp: >50

Req: So what FGFR1/FGFR4 did C=CC(=O)Nc1cnn(CCOC)c1-c1cc2c(cn1)CN(c1c(F)c(OC)cc(OC)c1F)C(=O)C21CC1 get with FGFR4 (Homo sapiens (Human))?
Resp: >100

Further cases:
Req: Quick check: FGFR1/FGFR4 on FGFR4 (Homo sapiens (Human)), item C=CC(=O)Nc1cn(CCOC)nc1-c1cc2c(cn1)CN(c1c(F)c(OC)cc(OC)c1F)C(=O)C21CC1 ?
Resp: >100

----------
TESTED SYSTEM: FGFR4 (Homo sapiens (Human), UniProt P22455)
PROTOCOL DETAILS: FGFR Enzymatic Assay (FRET peptide phosphorylation), FGFR4
ASSAY CONDITIONS: IC50 ratio showing FGFR4 selectivity; pre-incubated for 5 to 10 minutes
Hi there, I'd appreciate the recorded FGFR3/FGFR4 for every entry that follows.

Would you please look over these solved cases?
Req: # get_value(readout='FGFR3/FGFR4', item= C=CC(=O)Nc1ccc(C#N)c(-c2cc3c(cn2)CN(c2c(F)c(OC)cc(OC)c2F)C(=O)C32CC2)c1 )
Resp: >100

Req: Need FGFR3/FGFR4 of C=CC(=O)Nc1ccc(C)c(-c2cc3c(cn2)CN(c2c(F)c(OC)cc(OC)c2F)C(=O)C32CC2)c1 , thanks.
Resp: >100

Req: Value lookup for FGFR3/FGFR4; key = C=CC(=O)N1CCCC(c2cc3c(cn2)CN(c2c(F)c(OC)cc(OC)c2F)C(=O)C32CC2)C1 (centres unmarked)
Resp: >1

Req: Record request: FGFR3/FGFR4 value, item C=CC(=O)Nc1cnc(C)c(-c2cc3c(cn2)CN(c2c(F)c(OC)cc(OC)c2F)C(=O)C32CC2)c1
Resp: >100

Batch lookup, FGFR3/FGFR4 per entry.
1. C=CC(=O)Nc1cc(-c2cc3c(cn2)CN(c2c(F)c(OC)cc(OC)c2F)C(=O)C32CC2)cc(N2CCOCC2)c1
2. C=CC(=O)Nc1cc(CN2CCOCC2)cc(-c2cc3c(cn2)CN(c2c(F)c(OC)cc(OC)c2F)C(=O)C32CC2)c1
3. C=CC(=O)Nc1cc(-c2cc3c(cn2)CN(c2c(F)c(OC)cc(OC)c2F)C(=O)C32CC2)c(C)cc1F
4. C=CC(=O)Nc1cc(-c2cc3c(cn2)CN(c2c(F)c(OC)cc(OC)c2F)C(=O)C32CC2)ccc1CN1CCOCC1

Resp:
1: >100; 2: >100; 3: >100; 4: >1
